Cited source for all entries: patent US20220056018A1

Tested on: HT29
Test: Cancer cell growth inhibition
Assay type: cell-based
Conditions: Homo sapiens, HT-29; HT29 (colon), 72 hr treatment
pIC50: −log10 of the molar value.
value kind: pIC50

# smiles code, study target, value kind, reported
measured = [
    ("CS(=O)(=O)Nc1ccc(-c2cc(-c3ccnc4c3OCCO4)cs2)c(Cl)c1", "HT29", "pIC50", "> 5.00"),
]

Quickly give me recorded pIC50 for CC(C)(O)Cc1cc(-c2csc(-c3ccc(NS(C)(=O)=O)cc3Cl)c2)ccn1
> 5.00

Input CC(C)(CO)c1cc(-c2csc(-c3ccc(NS(C)(=O)=O)cc3Cl)c2)ccn1 , output reported pIC50.
> 5.00

----------
Test system: SU-DHL-6
Assay: Cancer cell growth inhibition
Assay type: cell-based
Settings: Homo sapiens; SU-DHL-6 (hematological), 72 hr treatment
pIC50: −log10 of the molar value.
value kind: pIC50

// below: answered molecules
# smiles code, pIC50
records = [
    ("CS(=O)(=O)Nc1ccc(-c2cc(-c3ccnc4c3OCCO4)cs2)c(Cl)c1", "> 5.00"),
    ("CC(C)(CO)c1cc(-c2csc(-c3ccc(NS(C)(=O)=O)cc3Cl)c2)ccn1", "> 5.00"),
]

Could you now look at the following molecule, please?
Give pIC50 for the following molecule: CC(C)(O)Cc1cc(-c2csc(-c3ccc(NS(C)(=O)=O)cc3Cl)c2)ccn1
> 5.00

----------
Below, each entry is listed alongside its reported pIC50.
Tested on: EJ28
Assay: Cancer cell growth inhibition
Format: cell-based
Settings: Homo sapiens, EJ-28; EJ28 (bladder), 72 hr treatment
pIC50: −log10 of the molar value.

# smiles code, pIC50
records = [
    ("CC(C)(O)Cc1cc(-c2csc(-c3ccc(NS(C)(=O)=O)cc3Cl)c2)ccn1", "< 5.00"),
    ("CS(=O)(=O)Nc1ccc(-c2cc(-c3ccnc4c3OCCO4)cs2)c(Cl)c1", "< 5.00"),
]

With those in mind, consider the next compound.
Identify pIC50 associated with the compound CC(C)(CO)c1cc(-c2csc(-c3ccc(NS(C)(=O)=O)cc3Cl)c2)ccn1
< 5.00

----------
IC50 values, listed per item
Test system: MV4-11
Assay: Cancer cell growth inhibition
Assay type: cell-based
Conditions: Homo sapiens; MV4-11 (hematological), 72 hr treatment

Worked examples, 2 compounds total:
# smiles code, reported
data = [
    ("CC(C)(O)Cc1cc(-c2csc(-c3ccc(NS(C)(=O)=O)cc3Cl)c2)ccn1", "< 10 µM"),
    ("CC(C)(CO)c1cc(-c2csc(-c3ccc(NS(C)(=O)=O)cc3Cl)c2)ccn1", "< 10 µM"),
]

API: the following record is the query input.
Give recorded IC50. CS(=O)(=O)Nc1ccc(-c2cc(-c3ccnc4c3OCCO4)cs2)c(Cl)c1
< 10 µM

----------
System: SKLMS1
Test: Cancer cell growth inhibition
Format: cell-based
Settings: Homo sapiens, SK-LMS-1; SKLMS1 (uterus), 72 hr treatment
pIC50: −log10 of the molar value.
value kind: pIC50

# smiles code, reported
rows = [
    ("CC(C)(O)Cc1cc(-c2csc(-c3ccc(NS(C)(=O)=O)cc3Cl)c2)ccn1", "< 5.00"),
    ("CC(C)(CO)c1cc(-c2csc(-c3ccc(NS(C)(=O)=O)cc3Cl)c2)ccn1", "< 5.00"),
]

Continue with the next compound.
Look up and report measured pIC50 for this entry: CS(=O)(=O)Nc1ccc(-c2cc(-c3ccnc4c3OCCO4)cs2)c(Cl)c1
< 5.00
